Attribution: patent US20150291565A1

test system: C. albicans ATCC 14053
The label is 1.0 for MIC below 20 µg/mL and 0.0 for MIC equal to or exceeding 20 µg/mL.

{"columns": ["compound.smiles", "qualitative.label"],
 "data": [
  ["c1cncc(Nc2ccc(-c3cc4ccc(C5=NCCN5)cc4[nH]3)cc2)c1", 0.0],
  ["Nc1ccc(Nc2ccc(-c3cc4ccc(C5=NCCN5)cc4[nH]3)cc2)cc1", 0.0],
  ["c1ccc(-c2ccc(Nc3ccc(-c4cc5ccc(C6=NCCN6)cc5[nH]4)cc3)cc2)nc1", 1.0],
  ["c1cnc(-c2ccc(Nc3ccc(-c4cc5ccc(C6=NCCN6)cc5[nH]4)cc3)cc2)cn1", 1.0],
  ["c1ccc(Nc2ccc(-c3cc4ccc(C5=NCCN5)cc4[nH]3)cc2)cc1", 1.0],
  ["CN1CCC(Nc2ccc(-c3cc4ccc(C5=NCCN5)cc4[nH]3)cc2)CC1", 0.0],
  ["c1cc(-c2cc3ccc(C4=NCCN4)cc3[nH]2)ccc1Nc1ccc(N2CCOCC2)cc1", 0.0],
  ["c1cc(-c2cc3ccc(C4=NCCN4)cc3[nH]2)ccc1NC1CCNCC1", 0.0],
  ["Nc1ccc(-c2ccc3cc(-c4ccc(Nc5ccc(C6=NCCN6)cc5)cc4)[nH]c3c2)cc1", 0.0],
  ["c1cc(C2=NCCN2)ccc1Nc1ccc(-c2cc3ccc(C4=NCCN4)cc3[nH]2)cc1", 1.0]
]}

----------
test system: E. faecium ATCC 700221 (VRE); test: Broth dilution MIC, E. faecium ATCC 700221; format: cell-based; settings: Table 2; broth dilution MIC in ug/ml; read-out: MIC E faecium ATCC 700221 VRE
Reported MIC is given for each of the following molecules.

{"columns": ["molecule", "MIC (µg/mL)"],
 "data": [
  ["c1cc(-c2cc3ccc(C4=NCCN4)cc3[nH]2)ccc1NC1CCNCC1 [SKI-6]", 64],
  ["c1cnc(-c2ccc(Nc3ccc(-c4cc5ccc(C6=NCCN6)cc5[nH]4)cc3)cc2)cn1 [SKI-10]", 0.12],
  ["c1ccc(Nc2ccc(-c3cc4ccc(C5=NCCN5)cc4[nH]3)cc2)cc1 [SKI-2]", 2],
  ["c1ccc(-c2ccc(Nc3ccc(-c4cc5ccc(C6=NCCN6)cc5[nH]4)cc3)cc2)nc1 [SKI-12]", 0.12],
  ["CN1CCC(Nc2ccc(-c3cc4ccc(C5=NCCN5)cc4[nH]3)cc2)CC1 [SKI-7]", 16],
  ["Nc1ccc(Nc2ccc(-c3cc4ccc(C5=NCCN5)cc4[nH]3)cc2)cc1 [SKI-8]", 4],
  ["c1cc(-c2cc3ccc(C4=NCCN4)cc3[nH]2)ccc1Nc1ccc(N2CCOCC2)cc1 [SKI-11]", 1],
  ["c1cncc(Nc2ccc(-c3cc4ccc(C5=NCCN5)cc4[nH]3)cc2)c1 [SKI-4]", 0.25],
  ["Nc1ccc(-c2ccc3cc(-c4ccc(Nc5ccc(C6=NCCN6)cc5)cc4)[nH]c3c2)cc1 [SKI-20]", 16],
  ["c1cc(C2=NCCN2)ccc1Nc1ccc(-c2cc3ccc(C4=NCCN4)cc3[nH]2)cc1 [SKI-1]", 0.06]
]}

----------
test system: M. smegmatis (mc2155); assay: Disk diffusion assay, zone of inhibition, M. smegmatis; type: cell-based; details: disk diffusion zone of inhibition
Threshold check on Zone Size M. smegmatis: at or above 10 mm gives 1 (yes), strictly below gives 0 (no).

{"columns": ["compound", "target.system", "qualitative.label"],
 "data": [
  ["Nc1ccc(Nc2ccc(-c3cc4ccc(C5=NCCN5)cc4[nH]3)cc2)cc1 [SKI-8]", "M. smegmatis (mc2155)", "1 (yes)"],
  ["Nc1ccc(-c2cc3ccc(C4=NCCN4)cc3[nH]2)cc1 [Compound 398657]", "M. smegmatis (mc2155)", "0 (no)"],
  ["c1ccc(Nc2ccc(-c3cc4ccc(C5=NCCN5)cc4[nH]3)cc2)cc1 [SKI-2]", "M. smegmatis (mc2155)", "1 (yes)"],
  ["c1cncc(Nc2ccc(-c3cc4ccc(C5=NCCN5)cc4[nH]3)cc2)c1 [SKI-4]", "M. smegmatis (mc2155)", "1 (yes)"],
  ["Nc1ccc(-c2ccc3cc(-c4ccc(Nc5ccc(C6=NCCN6)cc5)cc4)[nH]c3c2)cc1 [SKI-20]", "M. smegmatis (mc2155)", "0 (no)"],
  ["CN1CCC(Nc2ccc(-c3cc4ccc(C5=NCCN5)cc4[nH]3)cc2)CC1 [SKI-7]", "M. smegmatis (mc2155)", "1 (yes)"],
  ["c1ccc(-c2ccc(Nc3ccc(-c4cc5ccc(C6=NCCN6)cc5[nH]4)cc3)cc2)nc1 [SKI-12]", "M. smegmatis (mc2155)", "1 (yes)"],
  ["c1cc(-c2cc3ccc(C4=NCCN4)cc3[nH]2)ccc1NC1CCNCC1 [SKI-6]", "M. smegmatis (mc2155)", "1 (yes)"],
  ["c1cc(-c2cc3ccc(C4=NCCN4)cc3[nH]2)ccc1Nc1ccc(N2CCOCC2)cc1 [SKI-11]", "M. smegmatis (mc2155)", "1 (yes)"],
  ["c1cnc(-c2ccc(Nc3ccc(-c4cc5ccc(C6=NCCN6)cc5[nH]4)cc3)cc2)cn1 [SKI-10]", "M. smegmatis (mc2155)", "1 (yes)"],
  ["c1cc(C2=NCCN2)ccc1Nc1ccc(-c2cc3ccc(C4=NCCN4)cc3[nH]2)cc1 [SKI-1]", "M. smegmatis (mc2155)", "1 (yes)"]
]}

----------
system: S. aureus ATCC 29213 (MSSA); assay: Broth dilution MIC, S. aureus ATCC 29213; type: cell-based; conditions: Staphylococcus aureus; Table 1; range 64 down to 0.12 μg/ml; read-out: MIC S. aureus ATCC 29213
Catalogue of MIC readings, one per entry.

{"columns": ["molecule", "target.system", "MIC"],
 "data": [
  ["c1cncc(Nc2ccc(-c3cc4ccc(C5=NCCN5)cc4[nH]3)cc2)c1 [SKI-4]", "S. aureus ATCC 29213 (MSSA)", "2 µg/mL"],
  ["c1cc(C2=NCCN2)ccc1Nc1ccc(-c2cc3ccc(C4=NCCN4)cc3[nH]2)cc1 [SKI-1]", "S. aureus ATCC 29213 (MSSA)", "0.25 µg/mL"],
  ["c1ccc(Nc2ccc(-c3cc4ccc(C5=NCCN5)cc4[nH]3)cc2)cc1 [SKI-2]", "S. aureus ATCC 29213 (MSSA)", "8 µg/mL"],
  ["CN1CCC(Nc2ccc(-c3cc4ccc(C5=NCCN5)cc4[nH]3)cc2)CC1 [SKI-7]", "S. aureus ATCC 29213 (MSSA)", "2 µg/mL"],
  ["Nc1ccc(Nc2ccc(-c3cc4ccc(C5=NCCN5)cc4[nH]3)cc2)cc1 [SKI-8]", "S. aureus ATCC 29213 (MSSA)", "16 µg/mL"]
]}

----------
tested on: S. pneumoniae ATCC 700674 (PRSP); assay: Broth dilution MIC, S. pneumoniae ATCC 700674; format: cell-based; details: Streptococcus pneumoniae, Table 3; starting at 4 μg/ml; read-out: MIC S. pneumoniae ATCC 700674

{"columns": ["compound.smiles", "target.system", "MIC [mg/L]"],
 "data": [
  ["c1cc(C2=NCCN2)ccc1Nc1ccc(-c2cc3ccc(C4=NCCN4)cc3[nH]2)cc1", "S. pneumoniae ATCC 700674 (PRSP)", 0.12],
  ["c1cncc(Nc2ccc(-c3cc4ccc(C5=NCCN5)cc4[nH]3)cc2)c1", "S. pneumoniae ATCC 700674 (PRSP)", 0.5],
  ["c1ccc(-c2ccc(Nc3ccc(-c4cc5ccc(C6=NCCN6)cc5[nH]4)cc3)cc2)nc1", "S. pneumoniae ATCC 700674 (PRSP)", 0.12],
  ["c1cnc(-c2ccc(Nc3ccc(-c4cc5ccc(C6=NCCN6)cc5[nH]4)cc3)cc2)cn1", "S. pneumoniae ATCC 700674 (PRSP)", 0.12]
]}

----------
tested on: M. smegmatis (mc2155) Beta-Galactosidase (B-gal) reporter gene; assay: HTS screen with Beta-Galactosidase reporter gene in M. smegmatis; type: cell-based; conditions: Mycolicibacterium smegmatis, suffix 250 not explained, read-out: IC50_250
pIC50: −log10 of the molar value.

{"columns": ["compound.smiles", "pIC50"],
 "data": [
  ["c1cc(C2=NCCN2)ccc1Nc1ccc(-c2cc3ccc(C4=NCCN4)cc3[nH]2)cc1", 6.10]
]}

----------
tested on: P. aeruginosa ATCC 9027; assay: Broth dilution MIC, P. aeruginosa ATCC 9027; format: cell-based; conditions: Pseudomonas aeruginosa, ATCC9027, Table 1; range 64 down to 0.12 μg/ml; read-out: MIC P. aeruginosa ATCC 9027
We begin with a simple list: items and their reported MIC.

{"columns": ["compound.smiles", "unit.info", "bound.operator", "MIC"],
 "data": [
  ["c1cnc(-c2ccc(Nc3ccc(-c4cc5ccc(C6=NCCN6)cc5[nH]4)cc3)cc2)cn1", "µg/mL", "=", 16],
  ["c1cc(-c2cc3ccc(C4=NCCN4)cc3[nH]2)ccc1NC1CCNCC1", "µg/mL", ">", 64],
  ["Nc1ccc(-c2ccc3cc(-c4ccc(Nc5ccc(C6=NCCN6)cc5)cc4)[nH]c3c2)cc1", "µg/mL", ">", 64],
  ["c1cc(C2=NCCN2)ccc1Nc1ccc(-c2cc3ccc(C4=NCCN4)cc3[nH]2)cc1", "µg/mL", "=", 1],
  ["c1ccc(-c2ccc(Nc3ccc(-c4cc5ccc(C6=NCCN6)cc5[nH]4)cc3)cc2)nc1", "µg/mL", "=", 32],
  ["CN1CCC(Nc2ccc(-c3cc4ccc(C5=NCCN5)cc4[nH]3)cc2)CC1", "µg/mL", ">", 64],
  ["c1cc(-c2cc3ccc(C4=NCCN4)cc3[nH]2)ccc1Nc1ccc(N2CCOCC2)cc1", "µg/mL", ">", 64],
  ["c1ccc(Nc2ccc(-c3cc4ccc(C5=NCCN5)cc4[nH]3)cc2)cc1", "µg/mL", "=", 64],
  ["c1cncc(Nc2ccc(-c3cc4ccc(C5=NCCN5)cc4[nH]3)cc2)c1", "µg/mL", ">", 64],
  ["Nc1ccc(Nc2ccc(-c3cc4ccc(C5=NCCN5)cc4[nH]3)cc2)cc1", "µg/mL", ">", 64]
]}
